B1: TPR t1 (parent)
chain: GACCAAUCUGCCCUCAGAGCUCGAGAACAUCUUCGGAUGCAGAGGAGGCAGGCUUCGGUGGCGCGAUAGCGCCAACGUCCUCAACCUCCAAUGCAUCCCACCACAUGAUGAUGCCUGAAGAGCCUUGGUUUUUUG

variants of: B1; test: polymerase ribozyme fitness, log enrichment relative to wild type (log ratio); higher = more active; in vitro selection for triplet polymerase activity
quantity: polymerase ribozyme fitness (log ratio)

Example entries and their recorded answers appear below.
C123G U129A	-1.13
A16U C79U G110A	-2.61
A83U G113C G120U U132A	-4.48
A37G C49A	-0.708
C12U A27G A66C C73A U78C C101A	-4.25
C4A C70G	-3.6
U9C G51C U81G U92C	-5.89
G47C A84C	-0.862
G77A C85A	-2.93
G47C C62G	-4.1

Output measured polymerase ribozyme fitness (log ratio) for this item: U9A C12U A37G G61A
0.106

Output measured polymerase ribozyme fitness (log ratio) for this item: G71A U133G
-0.389

Output measured polymerase ribozyme fitness (log ratio) for this item: C12A C86U A111U
-3.42

Output measured polymerase ribozyme fitness (log ratio) for this item: C22A C53A C94U G110U
-6.9

Output measured polymerase ribozyme fitness (log ratio) for this item: A37C G39U C56U
-2.66
